- target under test: Calpain I (Homo sapiens)
- experiment: Inhibition and rate of inactivation of cysteine protease (calpain I) activity, Succ-Leu-Tyr-MNA substrate hydrolysis
- details: read-out: kobs/I x 10^-3 M^-1s^-1

{"compound": "CC(C)C[C@H](NC(=O)OCc1ccccc1)C(=O)N[C@@H](Cc1ccccc1)C(=O)COP(C)(C)=O", "unit spec": "M⁻¹ s⁻¹", "kinact/KI": 6000}
{"compound": "Cc1ccccc1P(=O)(OCC(=O)[C@H](Cc1ccccc1)NC(=O)[C@H](CC(C)C)NC(=O)OCc1ccccc1)c1ccccc1C", "unit spec": "M⁻¹ s⁻¹", "kinact/KI": 31000}
{"compound": "CC(C)C[C@H](NC(=O)OC(C)(C)C)C(=O)N[C@@H](Cc1ccccc1)C(=O)COP(=O)(OCc1ccccc1)OCc1ccccc1", "unit spec": "M⁻¹ s⁻¹", "kinact/KI": 242000}
{"compound": "CC(C)C[C@H](NC(=O)OCc1ccccc1)C(=O)N[C@@H](Cc1ccccc1)C(=O)COP(=O)(OCCc1ccccc1)OCCc1ccccc1", "unit spec": "M⁻¹ s⁻¹", "kinact/KI": 380000}
{"compound": "Cc1ccccc1COP(=O)(OCC(=O)[C@H](Cc1ccccc1)NC(=O)[C@H](CC(C)C)NC(=O)OCc1ccccc1)OCc1ccccc1C", "unit spec": "M⁻¹ s⁻¹", "kinact/KI": 365000}
{"compound": "CCCCC(CC)COP(=O)(OCC(=O)[C@H](Cc1ccccc1)NC(=O)[C@H](CC(C)C)NC(=O)OCc1ccccc1)OCC(CC)CCCC (stereo partly drawn)", "unit spec": "M⁻¹ s⁻¹", "kinact/KI": 1000}

###

- target under test: Calpain I (Homo sapiens, UniProt P07384)
- Sequence (P07384 1-714): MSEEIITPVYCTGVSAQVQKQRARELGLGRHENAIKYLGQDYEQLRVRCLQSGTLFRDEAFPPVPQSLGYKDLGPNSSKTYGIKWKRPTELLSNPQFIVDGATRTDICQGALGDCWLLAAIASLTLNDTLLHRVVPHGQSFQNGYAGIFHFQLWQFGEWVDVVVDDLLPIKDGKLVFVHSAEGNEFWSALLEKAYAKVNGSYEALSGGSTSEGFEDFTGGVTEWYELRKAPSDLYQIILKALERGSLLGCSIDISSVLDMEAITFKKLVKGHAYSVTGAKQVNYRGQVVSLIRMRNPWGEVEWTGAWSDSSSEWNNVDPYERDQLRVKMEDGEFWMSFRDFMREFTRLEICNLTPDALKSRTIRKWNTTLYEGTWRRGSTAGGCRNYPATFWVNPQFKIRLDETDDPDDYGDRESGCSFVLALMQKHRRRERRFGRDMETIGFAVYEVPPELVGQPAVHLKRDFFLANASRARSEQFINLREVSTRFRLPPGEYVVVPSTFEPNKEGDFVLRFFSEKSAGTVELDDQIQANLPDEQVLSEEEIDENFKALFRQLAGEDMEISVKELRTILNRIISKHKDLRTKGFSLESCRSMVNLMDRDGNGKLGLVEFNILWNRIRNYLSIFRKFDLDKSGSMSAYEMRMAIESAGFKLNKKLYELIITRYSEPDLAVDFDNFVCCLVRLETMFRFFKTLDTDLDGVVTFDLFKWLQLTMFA
- Sequence (P04632 1-268 partner): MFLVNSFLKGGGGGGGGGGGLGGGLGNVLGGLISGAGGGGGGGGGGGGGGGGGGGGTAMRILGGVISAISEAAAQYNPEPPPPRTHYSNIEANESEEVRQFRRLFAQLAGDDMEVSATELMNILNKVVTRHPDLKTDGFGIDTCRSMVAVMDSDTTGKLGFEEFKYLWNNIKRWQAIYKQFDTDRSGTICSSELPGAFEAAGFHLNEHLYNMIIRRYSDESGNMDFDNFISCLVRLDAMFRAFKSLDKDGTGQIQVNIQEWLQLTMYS
- experiment: Inhibition and rate of inactivation of cysteine protease (calpain I) activity, Succ-Leu-Tyr-MNA substrate hydrolysis
- details: read-out: kobs/I x 10^-3 M^-1s^-1
Counter-ions that a name gives are not always drawn.
Recorded measurements of log10 kinact/KI, one per entry
readout kind: log10 kinact/KI (log10 of the value in M⁻¹ s⁻¹)

{"compound": "Cc1ccccc1P(=O)(OCC(=O)[C@H](Cc1ccccc1)NC(=O)[C@H](CC(C)C)NC(=O)OC(C)(C)C)c1ccccc1C [Example 56]", "target under test": "Calpain I (Homo sapiens, UniProt P07384)", "log10 kinact/KI": 4.34}
{"compound": "COc1cccc(P(=O)(OCC(=O)[C@H](Cc2ccccc2)NC(=O)[C@H](CC(C)C)NC(=O)OCc2ccccc2)c2ccccc2)c1 (some centres unmarked) [Example 59]", "target under test": "Calpain I (Homo sapiens, UniProt P07384)", "log10 kinact/KI": 5.21}
{"compound": "COc1ccccc1P(=O)(OCC(=O)[C@H](Cc1ccccc1)NC(=O)[C@H](CC(C)C)NC(=O)OCc1ccccc1)c1ccccc1 (some centres unmarked) [Example 58]", "target under test": "Calpain I (Homo sapiens, UniProt P07384)", "log10 kinact/KI": 5.18}
{"compound": "COc1ccc(P(=O)(OCC(=O)[C@H](Cc2ccccc2)NC(=O)[C@H](CC(C)C)NC(=O)OCc2ccccc2)c2ccc(OC)cc2)cc1 [Example 57]", "target under test": "Calpain I (Homo sapiens, UniProt P07384)", "log10 kinact/KI": 4.93}
{"compound": "CCCCOP(=O)(OCCCC)OCC(=O)[C@H](Cc1ccccc1)NC(=O)[C@H](CC(C)C)NC(=O)OCc1ccccc1 [Example 43]", "target under test": "Calpain I (Homo sapiens, UniProt P07384)", "log10 kinact/KI": 4.60}
{"compound": "CC(C)C[C@H](NC(=O)OCc1ccccc1)C(=O)N[C@@H](Cc1ccccc1)C(=O)COP(=O)(OCc1ccccc1)OCc1ccccc1 [Example 34]", "target under test": "Calpain I (Homo sapiens, UniProt P07384)", "log10 kinact/KI": 5.00}
{"compound": "CC(C)C[C@H](NC(=O)OCc1ccccc1)C(=O)N[C@@H](Cc1ccccc1)C(=O)COP(=O)(CCc1ccccc1)CCc1ccccc1 [Example 54]", "target under test": "Calpain I (Homo sapiens, UniProt P07384)", "log10 kinact/KI": 3.90}
{"compound": "CC(C)C[C@H](NC(=O)OCc1ccccc1)C(=O)N[C@@H](Cc1ccccc1)C(=O)COP(=O)(OCCN1CCOCC1)c1ccccc1 (some centres unmarked) [Example 50, hydrochloride]", "target under test": "Calpain I (Homo sapiens, UniProt P07384)", "log10 kinact/KI": 4.85}
{"compound": "COP(=O)(OC)OCC(=O)[C@H](Cc1ccccc1)NC(=O)[C@H](CC(C)C)NC(=O)OCc1ccccc1 [Example 42]", "target under test": "Calpain I (Homo sapiens, UniProt P07384)", "log10 kinact/KI": 4.30}
{"compound": "CC(C)C[C@H](NC(=O)OCc1ccccc1)C(=O)N[C@@H](Cc1ccccc1)C(=O)COP(=O)(OCCN1CCCC1=O)c1ccccc1 (some centres unmarked) [Example 51]", "target under test": "Calpain I (Homo sapiens, UniProt P07384)", "log10 kinact/KI": 4.41}
